Let's look at some compounds and their measured growth inhibition.
test: NCI Yeast Anticancer Drug Screen. Data for the mlh1 rad18 strain (AID 175); conditions: S. cerevisiae mlh1 rad18 strain growth inhibition; at 50.0 µM; hits give high values
Compounds without any hit were thinned out: in the full panel of roughly 79,000, 15% have a hit.
Number only, in %; omit the unit.

Recorded results for 4 compounds are shown here.
[
  {
    "COMPOUND": "CCOC(=O)CNC(=O)C(Cc1ccccc1)NC(=O)c1ccccc1NC(=O)c1ccccc1 (stereo not given)",
    "growth inhibition, %": 22.2
  },
  {
    "COMPOUND": "CC(=O)C1(C)OC(c2ccccc2)=NC1=S (stereo not given)",
    "growth inhibition, %": 9.35
  },
  {
    "COMPOUND": "CCOC(=O)c1ccccc1Nc1c(C(=O)OCC)cnc2cc3c(cc12)OCO3",
    "growth inhibition, %": -7.8
  },
  {
    "COMPOUND": "CC/C(C)=N/NS(C)(=O)=O",
    "growth inhibition, %": -10.9
  }
]

Give reported growth inhibition value for COc1ccc(C2OCCC(C)O2)cc1OC (stereo not given)
-14.8

Give reported growth inhibition value for O=C1NNC2NC(=O)C3(NN2C1=O)c1ccccc1-c1ccccc13 (stereo not given)
-15.4

Give reported growth inhibition value for CC(C)(O)C(c1ccccc1)S(=O)(=O)O (stereo not given)
48.5

Give reported growth inhibition value for CCOC(=O)C(NC(=O)c1ccccc1)(N1CCOCC1)C(F)(F)F (stereo not given)
-44.9

Give reported growth inhibition value for `O=C1c2ccccc2C(=O)c2c(Nc3ccc4c5c(cccc35)C(=O)c3ccccc3-4)cccc21`
13.2

Give reported growth inhibition value for `Cc1cc(Cl)ncc1[N+](=O)[O-]`
5.75

---

assay: NCI Yeast Anticancer Drug Screen. Data for the cln2 rad14 strain (AID 165);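 note: 0% = growth equal to vehicle treated cultures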; conditions: S. cerevisiae cln2 rad14 strain, at 50.0 µM
Compounds without any hit were thinned out: in the full panel of roughly 79,000, 15% have a hit. Active and inactive are the calls of the source. No stated cut-off is given here; in the data, active means growth inhibition above about 70%; inactive means the rest.
Answer with one of the outcomes given here: active, inactive

Consider the worked cases shown below.
[
  {
    "COMPOUND": "CN(C)C=Nc1c(Br)cc(Br)c2nonc12",
    "LABEL CLASS": "inactive"
  },
  {
    "COMPOUND": "C#CCN(CCCC)CCCC",
    "LABEL CLASS": "inactive"
  },
  {
    "COMPOUND": "COC(=O)CC1(CC(=O)O)SCCS1",
    "LABEL CLASS": "inactive"
  },
  {
    "COMPOUND": "O=c1oc2ccccc2c(O)c1Oc1ccccc1",
    "LABEL CLASS": "inactive"
  },
  {
    "COMPOUND": "CC(C)c1ccc(OC(=N)c2ccccc2)cc1",
    "LABEL CLASS": "inactive"
  },
  {
    "COMPOUND": "Cc1ccccc1NC(=O)NC(Oc1ccccc1)(C(F)(F)F)C(F)(F)F",
    "LABEL CLASS": "inactive"
  }
]

Test call for this compound, please: `CC(C)CNC(=O)Nc1ccccc1C(F)(F)F`
inactive

Test call for this compound, please: `O=C(COC(=O)c1ccccc1Br)c1ccc(-c2ccccc2)cc1`
inactive

Test call for this compound, please: `CON`
inactive

Test call for this compound, please: `CSc1nnc(SCc2nn3c(=O)cc(C)nc3s2)s1`
inactive

Test call for this compound, please: CCOC(=O)CCC(C(=O)OCC)N1C(=O)c2ccccc2C1=O (stereo not given)
inactive

Test call for this compound, please: `CS/C(c1ccccc1)=[N+](\[O-])Cc1ccccc1`
inactive

Test call for this compound, please: `COc1ccc(-n2c(N)c(C#N)c(C#N)c2-c2ccccc2)cc1`
inactive

Test call for this compound, please: `CC(C)(S)CNCCSC(=O)c1ccccc1`
inactive

Test call for this compound, please: `COC(=O)C1=C(C(=O)OC)C(=Nc2ccccc2)c2ccccc2C1=O`
inactive

Test call for this compound, please: C=CCN(N=O)C(=O)N(CCC)CCCC(NC(C)=O)C(=O)NCc1ccccc1 (stereo not given)
inactive

Test call for this compound, please: CCOc1ncc(C(O)c2ccc(F)cc2)c(OCC)n1 (stereo not given)
inactive

Test call for this compound, please: CC1(C)/C(=N\NC(N)=O)C2CCC1C2 (stereo not given)
inactive
